- measuredTarget: T1, full-length human Regnase-1 with a FLAG tag on the N-terminal side and a biotin ligase BirA recognition … (human, UniProt Q5D1E8 1-599, biotinylated where required ; Biotinylated at the BirA recognition sequence where required. That sequence is not in the letters.)
- T1 construct: Expressed in Expi293 cells, purified on FLAG M2 agarose and by gel filtration; also called full-length Regnase-1; human full-length Regnase-1
- T1 sequence: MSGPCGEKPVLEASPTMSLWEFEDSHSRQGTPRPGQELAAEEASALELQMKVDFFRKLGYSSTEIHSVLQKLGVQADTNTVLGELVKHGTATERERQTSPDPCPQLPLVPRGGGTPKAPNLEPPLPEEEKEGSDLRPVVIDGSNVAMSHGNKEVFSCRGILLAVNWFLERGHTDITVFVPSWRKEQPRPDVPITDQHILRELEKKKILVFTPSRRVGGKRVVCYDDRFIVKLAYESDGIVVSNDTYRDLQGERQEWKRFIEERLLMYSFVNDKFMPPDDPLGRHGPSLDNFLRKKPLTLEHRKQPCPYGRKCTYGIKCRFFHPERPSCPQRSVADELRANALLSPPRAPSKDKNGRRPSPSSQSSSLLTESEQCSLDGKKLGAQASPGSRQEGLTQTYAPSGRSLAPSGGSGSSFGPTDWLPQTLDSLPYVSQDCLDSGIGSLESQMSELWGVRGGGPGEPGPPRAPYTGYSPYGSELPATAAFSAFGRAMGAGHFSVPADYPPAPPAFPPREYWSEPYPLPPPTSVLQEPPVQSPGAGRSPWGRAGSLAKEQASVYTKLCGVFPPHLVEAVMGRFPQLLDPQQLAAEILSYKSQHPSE
- protocolSummary: AlphaScreen, blocks IKKβ binding to FL_Reg1
Positions of bridges follow the written chain, without caps; N, C: chain ends. Non-standard residues stand in square brackets, D forms with d. No end group written: not given here. NMeA = CN[C@@H](C)C(=O)O; dNMeA = CN[C@H](C)C(=O)O
property: IC50 (µM)

# example entries with known answers
[dNMeA]PNSSWFKIWD (lactam N-11) [PP6]: 42.1
[NMeA]YIWDFFGDLD (lactam N-11) [PP4]: 47.7
[NMeA]HSNAWYNIWD (lactam N-11) [PP5]: 24

A: [NMeA]GYANSWYNIWD (lactam N-12) [PP2]
B: [dNMeA]KHASAWYRIWD (lactam N-12) [PP3]
Which has the smaller recorded IC50, A or B ? Give the label of your selection.
B
(B: 8.3 µM, A: 35.8 µM)

Entry source: patent US20220125891A1
